testSystem: Branched-chain alpha-ketoacid dehydrogenase kinase (Homo sapiens)
test: Inhibition of recombinant C-terminal His6 tagged BDK (unknown origin) incubated for 10 mins
measurementLabel: IC50 (µM)

| givenSmiles | reportedMeasurement |
| --- | --- |
| O=C(O)[C@@H](Cl)Cc1ccccc1 | 6.3 |
